MEASUREMENT_TARGET: ROCK2 (Homo sapiens, UniProt O75116)
Sequence (O75116 whole entry): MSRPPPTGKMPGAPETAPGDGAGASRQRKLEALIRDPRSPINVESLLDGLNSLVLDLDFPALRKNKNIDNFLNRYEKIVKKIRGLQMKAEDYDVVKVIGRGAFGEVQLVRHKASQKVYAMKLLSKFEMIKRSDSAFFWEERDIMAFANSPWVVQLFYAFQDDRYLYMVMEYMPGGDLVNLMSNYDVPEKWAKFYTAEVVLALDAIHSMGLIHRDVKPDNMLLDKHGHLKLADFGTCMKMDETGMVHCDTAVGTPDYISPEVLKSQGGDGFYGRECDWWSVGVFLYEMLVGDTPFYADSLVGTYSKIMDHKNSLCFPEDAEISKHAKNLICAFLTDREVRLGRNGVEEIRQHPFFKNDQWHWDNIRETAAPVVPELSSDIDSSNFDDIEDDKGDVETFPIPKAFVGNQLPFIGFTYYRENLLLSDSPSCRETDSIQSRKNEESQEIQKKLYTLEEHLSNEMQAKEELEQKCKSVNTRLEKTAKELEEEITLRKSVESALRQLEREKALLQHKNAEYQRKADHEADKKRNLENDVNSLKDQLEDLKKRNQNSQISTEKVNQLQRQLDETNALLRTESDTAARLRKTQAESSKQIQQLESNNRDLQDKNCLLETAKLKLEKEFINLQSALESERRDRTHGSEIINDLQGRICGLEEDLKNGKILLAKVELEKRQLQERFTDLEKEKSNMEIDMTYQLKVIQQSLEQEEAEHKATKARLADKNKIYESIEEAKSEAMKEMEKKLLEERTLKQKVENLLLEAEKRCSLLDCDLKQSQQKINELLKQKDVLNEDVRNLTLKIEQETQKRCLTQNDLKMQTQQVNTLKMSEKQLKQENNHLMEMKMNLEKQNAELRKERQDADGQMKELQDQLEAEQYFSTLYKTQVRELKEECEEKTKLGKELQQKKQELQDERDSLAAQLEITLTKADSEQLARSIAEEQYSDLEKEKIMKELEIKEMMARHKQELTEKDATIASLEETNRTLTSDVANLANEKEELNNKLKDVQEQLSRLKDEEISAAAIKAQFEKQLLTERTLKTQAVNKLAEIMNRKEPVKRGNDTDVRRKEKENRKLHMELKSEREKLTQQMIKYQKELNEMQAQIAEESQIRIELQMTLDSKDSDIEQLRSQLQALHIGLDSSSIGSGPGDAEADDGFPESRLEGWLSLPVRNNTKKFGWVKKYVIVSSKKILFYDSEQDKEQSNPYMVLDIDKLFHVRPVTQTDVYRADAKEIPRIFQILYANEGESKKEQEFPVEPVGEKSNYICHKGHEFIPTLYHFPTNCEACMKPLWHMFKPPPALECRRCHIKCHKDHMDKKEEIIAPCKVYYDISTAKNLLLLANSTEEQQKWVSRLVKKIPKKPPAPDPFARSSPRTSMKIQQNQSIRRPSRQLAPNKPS
MEASUREMENT_DESCRIPTION: ROCK2 kinase enzymatic activity (HTRF, STK2 substrate)
Type: biochemical
CONDITIONS_USED: ROCK2 kinase reaction 30 minutes at room temperature
READOUT: IC50

Some molecules with recorded IC50:
> print(dat)
                                   molecule                    measurement.target  observed
1  N#CCC1(n2cc(-c3ncnc4[nH]ccc34)c(N)n2)CC2(CCC2)C1  ROCK2 (Homo sapiens, UniProt O75116)    < 5 nM
2  N#CC1CCCC1n1cc(-c2ncnc3[nH]ccc23)c(N)n1 (stereo not drawn)  ROCK2 (Homo sapiens, UniProt O75116)   < 50 nM
3  N#CCC(C1CCC2(CC2)C1)n1cc(-c2ncnc3[nH]ccc23)c(N)n1 (stereo not drawn)  ROCK2 (Homo sapiens, UniProt O75116)    < 5 nM

Q: Can you look up the measured IC50 of N#CCC1(n2cc(-c3ncnc4[nH]ccc34)c(N)n2)CC(F)(F)C1 for me?
Ans: < 5 nM

Q: Can you look up the measured IC50 of N#CCC(C1CC2(CC2)C1)n1cc(-c2ncnc3[nH]ccc23)c(N)n1 (stereo not drawn) for me?
Ans: < 5 nM

Q: Can you look up the measured IC50 of CC1(C)CC(C(CC#N)n2cc(-c3ncnc4[nH]ccc34)c(N)n2)C1 (stereo not drawn) for me?
Ans: < 5 nM

Q: Can you look up the measured IC50 of N#CC[C@@H](C1CC1)n1cc(-c2ncnc3[nH]ccc23)c(N)n1 for me?
Ans: < 2 nM

Q: Can you look up the measured IC50 of N#CCC(C1CC2(CCC2)C1)n1cc(-c2ncnc3[nH]ccc23)c(N)n1 (stereo not drawn) for me?
Ans: < 5 nM

Q: Can you look up the measured IC50 of N#CCC1(n2cc(-c3ncnc4[nH]ccc34)c(N)n2)CCCC1 for me?
Ans: < 10 nM

###

# reported IC50; entries follow
MEASUREMENT_TARGET: ROCK2 (Homo sapiens)
MEASUREMENT_DESCRIPTION: ROCK2 kinase enzymatic activity (HTRF, STK2 substrate)
Assay type: biochemical
CONDITIONS_USED: ROCK2 kinase reaction 30 minutes at room temperature
From the text: The kinase activity data was expressed by comparing the kinase activity of the test compound and that of the blank group (containing only DMSO), and the IC50 value was obtained by curve fitting using Prism software (GraphPad7.0).

> print(dat)
                                   compound  observed
1  N#CC[C@H](C1CCC1)n1cc(-c2ncnc3[nH]ccc23)c(N)n1    < 5 nM

Q: Can you look up the measured IC50 of N#CC[C@]1(n2cc(-c3ncnc4[nH]ccc34)c(N)n2)C[C@@H](C#N)C1 for me?
Ans: < 10 nM

Q: Can you look up the measured IC50 of CC1CC([C@@H](CC#N)n2cc(-c3ncnc4[nH]ccc34)c(N)n2)C1 (stereo partly drawn) for me?
Ans: < 5 nM

Q: Can you look up the measured IC50 of N#CCC(C1CC2(CCCC2)C1)n1cc(-c2ncnc3[nH]ccc23)c(N)n1 (stereo not drawn) for me?
Ans: < 5 nM

Q: Can you look up the measured IC50 of N#CC[C@H](C1CC1)n1cc(-c2ncnc3[nH]ccc23)c(N)n1 for me?
Ans: < 2 nM

Q: Can you look up the measured IC50 of CC1CC(C(CC#N)n2cc(-c3ncnc4[nH]ccc34)c(N)n2)C1 (stereo not drawn) for me?
Ans: < 5 nM

Q: Can you look up the measured IC50 of N#CC[C@]1(n2cc(-c3ncnc4[nH]ccc34)c(N)n2)C[C@H](C#N)C1 for me?
Ans: < 1 nM

Q: Can you look up the measured IC50 of N#CCC1(n2cc(-c3ncnc4[nH]ccc34)c(N)n2)CCS(=O)(=O)C1 (stereo not drawn) for me?
Ans: < 1 nM

Q: Can you look up the measured IC50 of N#CCC(C1CCCCC1)n1cc(-c2ncnc3[nH]ccc23)c(N)n1 (stereo not drawn) for me?
Ans: < 5 nM

###

MEASUREMENT_TARGET: ROCK2 (Homo sapiens)
MEASUREMENT_DESCRIPTION: ROCK2 kinase enzymatic activity (HTRF, STK2 substrate)
Format: biochemical
CONDITIONS_USED: ROCK2 kinase reaction 30 minutes at room temperature
Description: The kinase activity data was expressed by comparing the kinase activity of the test compound and that of the blank group (containing only DMSO), and the IC50 value was obtained by curve fitting using Prism software (GraphPad7.0).
READOUT: IC50

> print(dat)
                                   molecule  observed
1  N#CCC(C1CCC1)n1cc(-c2ncnc3[nH]ccc23)c(N)n1 (centres unmarked) [Example 13]    < 5 nM

Q: Write down the reported IC50 of N#CCC1(n2cc(-c3ncnc4[nH]ccc34)c(N)n2)CCS(=O)(=O)CC1 [Example 1] , test system: ROCK2 (Homo sapiens).
Ans: < 1 nM

Q: Write down the reported IC50 of N#CC[C@@H](C1CCCCC1)n1cc(-c2ncnc3[nH]ccc23)c(N)n1 [Example 30] , test system: ROCK2 (Homo sapiens).
Ans: < 5 nM

Q: Write down the reported IC50 of N#CC[C@@H](C1CCC1)n1cc(-c2ncnc3[nH]ccc23)c(N)n1 [Example 28] , test system: ROCK2 (Homo sapiens).
Ans: < 5 nM

Q: Write down the reported IC50 of N#CC[C@H](C1CCCCC1)n1cc(-c2ncnc3[nH]ccc23)c(N)n1 [Example 29] , test system: ROCK2 (Homo sapiens).
Ans: < 5 nM

###

MEASUREMENT_TARGET: ROCK2 (Homo sapiens, UniProt O75116)
MEASUREMENT_DESCRIPTION: ROCK2 kinase enzymatic activity (HTRF, STK2 substrate)
Assay type: biochemical
CONDITIONS_USED: ROCK2 kinase reaction 30 minutes at room temperature
READOUT: IC50

Some compounds with recorded IC50:
> print(dat)
                                   compound  observed
1  N#CCC1(n2cc(-c3ncnc4[nH]ccc34)c(N)n2)CCCCC1    < 5 nM
2  CC1CC([C@H](CC#N)n2cc(-c3ncnc4[nH]ccc34)c(N)n2)C1 (some centres unmarked)    < 5 nM
3  N#CC1CCCCC1n1cc(-c2ncnc3[nH]ccc23)c(N)n1 (centres unmarked)   < 50 nM

Q: Can you look up the measured IC50 of N#CCC1(n2cc(-c3ncnc4[nH]ccc34)c(N)n2)CS(=O)(=O)C1 for me?
Ans: < 1 nM

Q: Can you look up the measured IC50 of N#CCC1(n2cc(-c3ncnc4[nH]ccc34)c(N)n2)CC(C#N)C1 (centres unmarked) for me?
Ans: < 10 nM

Q: Can you look up the measured IC50 of N#CCC(C1CC1)n1cc(-c2ncnc3[nH]ccc23)c(N)n1 (centres unmarked) for me?
Ans: < 2 nM

Q: Can you look up the measured IC50 of C[C@H]1CNCCCN1S(=O)(=O)c1cccc2cncc(F)c12 [Ripasudil, reference compound] for me?
Ans: 29.6 nM

Q: Can you look up the measured IC50 of N#CCC(C1CC2CC2C1)n1cc(-c2ncnc3[nH]ccc23)c(N)n1 (centres unmarked) for me?
Ans: < 5 nM

###

MEASUREMENT_TARGET: UniProtKB Q13464
Sequence (Q13464 whole entry): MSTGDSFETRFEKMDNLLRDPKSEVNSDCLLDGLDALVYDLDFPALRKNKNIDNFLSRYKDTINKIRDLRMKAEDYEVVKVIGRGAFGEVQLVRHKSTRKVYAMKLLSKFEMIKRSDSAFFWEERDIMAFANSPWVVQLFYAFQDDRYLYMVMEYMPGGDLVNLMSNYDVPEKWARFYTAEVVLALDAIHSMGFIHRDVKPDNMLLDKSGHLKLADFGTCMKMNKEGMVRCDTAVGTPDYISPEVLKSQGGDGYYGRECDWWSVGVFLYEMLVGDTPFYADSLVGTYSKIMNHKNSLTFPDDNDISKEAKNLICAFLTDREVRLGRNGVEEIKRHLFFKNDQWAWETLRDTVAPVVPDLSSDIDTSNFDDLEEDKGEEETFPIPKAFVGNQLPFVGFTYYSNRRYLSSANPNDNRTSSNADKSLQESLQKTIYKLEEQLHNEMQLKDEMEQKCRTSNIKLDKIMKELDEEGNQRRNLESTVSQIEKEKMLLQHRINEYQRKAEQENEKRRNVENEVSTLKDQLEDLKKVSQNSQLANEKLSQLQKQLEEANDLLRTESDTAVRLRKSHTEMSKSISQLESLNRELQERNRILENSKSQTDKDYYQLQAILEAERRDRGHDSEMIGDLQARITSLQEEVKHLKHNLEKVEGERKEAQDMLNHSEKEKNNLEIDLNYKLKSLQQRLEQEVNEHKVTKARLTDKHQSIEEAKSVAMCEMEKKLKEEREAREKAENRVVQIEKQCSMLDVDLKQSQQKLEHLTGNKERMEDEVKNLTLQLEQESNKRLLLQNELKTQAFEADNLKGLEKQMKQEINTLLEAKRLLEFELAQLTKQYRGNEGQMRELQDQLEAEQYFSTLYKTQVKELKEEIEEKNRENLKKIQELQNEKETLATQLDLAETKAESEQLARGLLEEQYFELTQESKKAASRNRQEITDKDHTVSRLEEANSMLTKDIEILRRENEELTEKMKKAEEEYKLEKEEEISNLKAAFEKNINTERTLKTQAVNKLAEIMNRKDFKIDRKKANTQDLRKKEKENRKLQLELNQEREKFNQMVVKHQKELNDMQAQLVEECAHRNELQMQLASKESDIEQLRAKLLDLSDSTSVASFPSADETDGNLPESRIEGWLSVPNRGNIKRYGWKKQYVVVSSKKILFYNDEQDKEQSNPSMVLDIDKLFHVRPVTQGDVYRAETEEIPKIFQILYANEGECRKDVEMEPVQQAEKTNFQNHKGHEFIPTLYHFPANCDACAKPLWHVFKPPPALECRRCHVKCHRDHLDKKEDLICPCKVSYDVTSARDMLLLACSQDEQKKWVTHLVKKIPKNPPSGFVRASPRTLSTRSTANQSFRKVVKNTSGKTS
MEASUREMENT_DESCRIPTION: ROCK1 kinase enzymatic activity (HTRF, STK2 substrate)
Assay type: biochemical
CONDITIONS_USED: ROCK1 kinase reaction 20 minutes at room temperature
READOUT: IC50

> print(dat)
                                   compound  measurement.target  observed
1  N#CCC(C1CC2(CCC2)C1)n1cc(-c2ncnc3[nH]ccc23)c(N)n1 (stereo not drawn)    UniProtKB Q13464    < 5 nM
2  N#CC[C@@H](C1CCCCC1)n1cc(-c2ncnc3[nH]ccc23)c(N)n1    UniProtKB Q13464    < 5 nM
3  N#CC[C@H](C1CCCCC1)n1cc(-c2ncnc3[nH]ccc23)c(N)n1    UniProtKB Q13464    < 5 nM
4  N#CCC(C1CC2(CCCC2)C1)n1cc(-c2ncnc3[nH]ccc23)c(N)n1 (stereo not drawn)    UniProtKB Q13464    < 5 nM

Q: Can you look up the measured IC50 of N#CC1CCCCC1n1cc(-c2ncnc3[nH]ccc23)c(N)n1 (stereo not drawn) for me?
Ans: < 50 nM

Q: Can you look up the measured IC50 of N#CCC(C1CC1)n1cc(-c2ncnc3[nH]ccc23)c(N)n1 (stereo not drawn) for me?
Ans: < 5 nM

Q: Can you look up the measured IC50 of CC1(C)CC(C(CC#N)n2cc(-c3ncnc4[nH]ccc34)c(N)n2)C1 (stereo not drawn) for me?
Ans: < 5 nM

Q: Can you look up the measured IC50 of N#CCC(C1CCC2(CC2)C1)n1cc(-c2ncnc3[nH]ccc23)c(N)n1 (stereo not drawn) for me?
Ans: < 5 nM

Q: Can you look up the measured IC50 of N#CCC1(n2cc(-c3ncnc4[nH]ccc34)c(N)n2)CCS(=O)(=O)C1 (stereo not drawn) for me?
Ans: < 2 nM

Q: Can you look up the measured IC50 of N#CCC1(n2cc(-c3ncnc4[nH]ccc34)c(N)n2)CC2(CCC2)C1 for me?
Ans: < 5 nM

Q: Can you look up the measured IC50 of N#CC[C@]1(n2cc(-c3ncnc4[nH]ccc34)c(N)n2)C[C@@H](C#N)C1 for me?
Ans: < 10 nM

Q: Can you look up the measured IC50 of N#CCC1(n2cc(-c3ncnc4[nH]ccc34)c(N)n2)CCS(=O)(=O)CC1 for me?
Ans: < 2 nM

Q: Can you look up the measured IC50 of N#CCC1(n2cc(-c3ncnc4[nH]ccc34)c(N)n2)CCCC1 for me?
Ans: < 10 nM

Q: Can you look up the measured IC50 of N#CC[C@@H](C1CC1)n1cc(-c2ncnc3[nH]ccc23)c(N)n1 for me?
Ans: < 5 nM

Q: Can you look up the measured IC50 of N#CCC(C1CCCCC1)n1cc(-c2ncnc3[nH]ccc23)c(N)n1 (stereo not drawn) for me?
Ans: < 5 nM

Q: Can you look up the measured IC50 of N#CCC1(n2cc(-c3ncnc4[nH]ccc34)c(N)n2)CCCCC1 for me?
Ans: < 5 nM

Q: Can you look up the measured IC50 of CC1CC(C(CC#N)n2cc(-c3ncnc4[nH]ccc34)c(N)n2)C1 (stereo not drawn) for me?
Ans: < 5 nM

Q: Can you look up the measured IC50 of N#CC[C@H](C1CC1)n1cc(-c2ncnc3[nH]ccc23)c(N)n1 for me?
Ans: < 5 nM

Q: Can you look up the measured IC50 of N#CC[C@]1(n2cc(-c3ncnc4[nH]ccc34)c(N)n2)C[C@H](C#N)C1 for me?
Ans: < 2 nM
